Protocol Description: Pharmacokinetic profile in ICR mice
Condition: mouse, in vivo, oral 10 mg/kg, n = 3
Assay Metric: half-life (h)
The answer is to be given in h; state only the numeric part.

Q: Entry O=C([O-])C[C@H]1CC[C@@H](c2csc3c(-c4ccc(NC(=O)Nc5cccc(Cl)c5)cc4)ncnc32)CC1.[Na+] [Compound 17a] has what half-life?
Ans: 1.2

// next item, half-life requested
Q: Entry O=C([O-])C[C@H]1CC[C@H](c2csc3c(-c4ccc(NC(=O)Nc5cccc(Cl)c5)cc4)ncnc32)CC1.[Na+] [Compound 17b] has what half-life?
Ans: 5.2

###

Catalogue of Cmax values
Protocol Description: Pharmacokinetic profile in ICR mice
Condition: mouse, in vivo, oral 10 mg/kg, n = 3
Express the reported value numerically, then name its unit.

Q: Entry O=C([O-])C[C@H]1CC[C@@H](c2csc3c(-c4ccc(NC(=O)Nc5cccc(Cl)c5)cc4)ncnc32)CC1.[Na+] [Compound 17a] has what Cmax?
Ans: 479 ng/mL

// next item, Cmax requested
Q: Entry O=C([O-])C[C@H]1CC[C@H](c2csc3c(-c4ccc(NC(=O)Nc5cccc(Cl)c5)cc4)ncnc32)CC1.[Na+] [Compound 17b] has what Cmax?
Ans: 74.8 ng/mL

###

Tgt: CYP2C9 (Homo sapiens)
Sequence (P11712 whole entry): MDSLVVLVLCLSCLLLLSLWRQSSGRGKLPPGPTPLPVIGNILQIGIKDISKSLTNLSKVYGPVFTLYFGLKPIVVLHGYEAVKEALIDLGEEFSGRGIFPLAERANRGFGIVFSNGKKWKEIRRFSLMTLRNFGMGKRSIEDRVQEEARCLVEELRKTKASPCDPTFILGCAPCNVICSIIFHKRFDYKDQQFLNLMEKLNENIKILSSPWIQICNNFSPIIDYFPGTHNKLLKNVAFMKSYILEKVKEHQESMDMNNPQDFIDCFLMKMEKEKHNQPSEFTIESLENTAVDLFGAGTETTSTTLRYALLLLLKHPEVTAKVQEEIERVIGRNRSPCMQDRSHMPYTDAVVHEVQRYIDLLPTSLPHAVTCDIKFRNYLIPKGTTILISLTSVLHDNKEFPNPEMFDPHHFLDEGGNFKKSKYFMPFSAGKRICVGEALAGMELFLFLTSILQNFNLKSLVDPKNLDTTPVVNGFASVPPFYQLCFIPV
Assay Metric: IC50 (nM)
The answer is to be given in nM; state only the numeric part.

Q: Short answer please: IC50, CYP2C9 (Homo sapiens), entry O=C([O-])C[C@H]1CC[C@@H](c2csc3c(-c4ccc(NC(=O)Nc5cccc(Cl)c5)cc4)ncnc32)CC1.[Na+] [Compound 17a]
Ans: 2900

###

Tgt: CYP2D6 (Homo sapiens, UniProt P10635)
Sequence (P10635 whole entry): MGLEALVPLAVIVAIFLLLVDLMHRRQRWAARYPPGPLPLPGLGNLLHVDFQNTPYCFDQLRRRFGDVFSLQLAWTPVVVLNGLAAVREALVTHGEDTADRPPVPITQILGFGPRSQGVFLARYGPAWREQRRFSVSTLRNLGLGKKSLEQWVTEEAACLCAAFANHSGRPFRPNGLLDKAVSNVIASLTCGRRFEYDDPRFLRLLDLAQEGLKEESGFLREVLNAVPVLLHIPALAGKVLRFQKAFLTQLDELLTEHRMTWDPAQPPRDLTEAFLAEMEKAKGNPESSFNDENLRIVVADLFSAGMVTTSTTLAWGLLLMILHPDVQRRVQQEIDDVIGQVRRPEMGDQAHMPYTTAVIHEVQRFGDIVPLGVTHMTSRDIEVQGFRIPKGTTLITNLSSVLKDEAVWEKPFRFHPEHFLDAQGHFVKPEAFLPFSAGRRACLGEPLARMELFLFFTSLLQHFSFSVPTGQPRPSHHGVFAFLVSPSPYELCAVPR
Assay Metric: pIC50
On this scale, pIC50 is minus log10 of a concentration expressed in M (mol/L).

Q: Entry O=C([O-])C[C@H]1CC[C@@H](c2csc3c(-c4ccc(NC(=O)Nc5cccc(Cl)c5)cc4)ncnc32)CC1.[Na+] [Compound 17a] has what pIC50?
Ans: 5.06

###

Protocol Description: Pharmacokinetic profile in dog
Format: in vivo
Condition: in vivo, 3 mg/kg po
Assay Metric: half-life (h)
The answer is to be given in h; state only the numeric part.

Q: Entry O=C([O-])C[C@H]1CC[C@@H](c2csc3c(-c4ccc(NC(=O)Nc5cccc(Cl)c5)cc4)ncnc32)CC1.[Na+] [Compound 17a] has what half-life?
Ans: 3.6

###

Protocol Description: Pharmacokinetic profile in rat
Format: in vivo
Condition: in vivo, 10 mg/kg po, read-out: AUC 0 ∼ 24
Assay Metric: AUC
Express the reported value numerically, then name its unit.

Q: Entry O=C([O-])C[C@H]1CC[C@@H](c2csc3c(-c4ccc(NC(=O)Nc5cccc(Cl)c5)cc4)ncnc32)CC1.[Na+] [Compound 17a] has what AUC?
Ans: 18600 ng·h/mL

###

Catalogue of bioavailability values
Protocol Description: Pharmacokinetic profile in ICR mice
Condition: mouse, in vivo, oral 10 mg/kg vs iv 3 mg/kg
The answer is to be given in %; state only the numeric part.

Q: Entry O=C([O-])C[C@H]1CC[C@@H](c2csc3c(-c4ccc(NC(=O)Nc5cccc(Cl)c5)cc4)ncnc32)CC1.[Na+] [Compound 17a] has what bioavailability?
Ans: 19

Q: Entry O=C([O-])C[C@H]1CC[C@H](c2csc3c(-c4ccc(NC(=O)Nc5cccc(Cl)c5)cc4)ncnc32)CC1.[Na+] [Compound 17b] has what bioavailability?
Ans: 0.7

###

Catalogue of AUC values
Protocol Description: Pharmacokinetic profile in ICR mice
Condition: mouse, in vivo, oral 10 mg/kg, n = 3, read-out: AUC 0∼24
The answer is to be given in ng·h/mL; state only the numeric part.

Q: Entry O=C([O-])C[C@H]1CC[C@H](c2csc3c(-c4ccc(NC(=O)Nc5cccc(Cl)c5)cc4)ncnc32)CC1.[Na+] [Compound 17b] has what AUC?
Ans: 234

// next item, AUC requested
Q: Entry O=C([O-])C[C@H]1CC[C@@H](c2csc3c(-c4ccc(NC(=O)Nc5cccc(Cl)c5)cc4)ncnc32)CC1.[Na+] [Compound 17a] has what AUC?
Ans: 861

###

Tgt: CYP3A4 (Homo sapiens)
Sequence (P08684 whole entry): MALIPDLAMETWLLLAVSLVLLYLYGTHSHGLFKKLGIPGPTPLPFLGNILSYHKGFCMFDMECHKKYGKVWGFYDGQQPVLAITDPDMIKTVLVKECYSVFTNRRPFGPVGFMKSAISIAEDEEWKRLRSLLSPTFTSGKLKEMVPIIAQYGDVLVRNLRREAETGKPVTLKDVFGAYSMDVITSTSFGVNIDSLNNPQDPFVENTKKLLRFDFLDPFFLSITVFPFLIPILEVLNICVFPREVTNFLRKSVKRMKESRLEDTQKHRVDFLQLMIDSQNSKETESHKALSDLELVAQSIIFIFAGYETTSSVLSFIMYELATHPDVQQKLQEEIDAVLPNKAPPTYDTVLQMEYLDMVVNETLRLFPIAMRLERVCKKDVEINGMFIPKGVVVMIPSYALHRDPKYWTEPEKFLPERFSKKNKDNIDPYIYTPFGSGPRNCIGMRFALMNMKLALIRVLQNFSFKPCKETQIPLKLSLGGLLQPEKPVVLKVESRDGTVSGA
Assay Metric: IC50
Express the reported value numerically, then name its unit.

Q: Short answer please: IC50, CYP3A4 (Homo sapiens), entry O=C([O-])C[C@H]1CC[C@@H](c2csc3c(-c4ccc(NC(=O)Nc5cccc(Cl)c5)cc4)ncnc32)CC1.[Na+] [Compound 17a]
Ans: 16.2 µM

###

Protocol Description: Pharmacokinetic profile in rat
Format: in vivo
Condition: in vivo, 10 mg/kg po vs 3 mg/kg iv
Assay Metric: bioavailability (%)
The answer is to be given in %; state only the numeric part.

Q: Entry O=C([O-])C[C@H]1CC[C@@H](c2csc3c(-c4ccc(NC(=O)Nc5cccc(Cl)c5)cc4)ncnc32)CC1.[Na+] [Compound 17a] has what bioavailability?
Ans: 30

###

Tgt: CYP1A2 (Homo sapiens, UniProt P05177)
Sequence (P05177 whole entry): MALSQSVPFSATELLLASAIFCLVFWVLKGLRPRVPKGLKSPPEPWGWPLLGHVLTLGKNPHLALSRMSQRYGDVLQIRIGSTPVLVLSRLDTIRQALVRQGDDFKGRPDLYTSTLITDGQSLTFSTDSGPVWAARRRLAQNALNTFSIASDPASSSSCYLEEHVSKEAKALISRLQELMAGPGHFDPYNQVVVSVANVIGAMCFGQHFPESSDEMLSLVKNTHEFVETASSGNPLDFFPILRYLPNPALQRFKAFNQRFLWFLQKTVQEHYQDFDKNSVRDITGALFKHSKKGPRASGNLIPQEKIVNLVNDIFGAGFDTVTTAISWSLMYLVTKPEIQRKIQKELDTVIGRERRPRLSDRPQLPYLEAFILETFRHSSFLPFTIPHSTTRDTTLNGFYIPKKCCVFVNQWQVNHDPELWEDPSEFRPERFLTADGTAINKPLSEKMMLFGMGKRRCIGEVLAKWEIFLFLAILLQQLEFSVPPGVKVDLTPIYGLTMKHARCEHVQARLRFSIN
Assay Metric: pIC50
On this scale, pIC50 is minus log10 of a concentration expressed in M (mol/L).

Q: Short answer please: pIC50, CYP1A2 (Homo sapiens, UniProt P05177), entry O=C([O-])C[C@H]1CC[C@@H](c2csc3c(-c4ccc(NC(=O)Nc5cccc(Cl)c5)cc4)ncnc32)CC1.[Na+] [Compound 17a]
Ans: 4.97

###

Protocol Description: Pharmacokinetic profile in dog
Assay type: in vivo
Condition: in vivo, 3 mg/kg po vs 1 mg/kg iv
Assay Metric: bioavailability (%)
The answer is to be given in %; state only the numeric part.

Q: Entry O=C([O-])C[C@H]1CC[C@@H](c2csc3c(-c4ccc(NC(=O)Nc5cccc(Cl)c5)cc4)ncnc32)CC1.[Na+] [Compound 17a] has what bioavailability?
Ans: 53

###

Tgt: human recombinant DGAT1 enzyme expressed in insect cells (SF9 cells) (Homo sapiens, UniProt O75907)
Sequence (O75907 whole entry): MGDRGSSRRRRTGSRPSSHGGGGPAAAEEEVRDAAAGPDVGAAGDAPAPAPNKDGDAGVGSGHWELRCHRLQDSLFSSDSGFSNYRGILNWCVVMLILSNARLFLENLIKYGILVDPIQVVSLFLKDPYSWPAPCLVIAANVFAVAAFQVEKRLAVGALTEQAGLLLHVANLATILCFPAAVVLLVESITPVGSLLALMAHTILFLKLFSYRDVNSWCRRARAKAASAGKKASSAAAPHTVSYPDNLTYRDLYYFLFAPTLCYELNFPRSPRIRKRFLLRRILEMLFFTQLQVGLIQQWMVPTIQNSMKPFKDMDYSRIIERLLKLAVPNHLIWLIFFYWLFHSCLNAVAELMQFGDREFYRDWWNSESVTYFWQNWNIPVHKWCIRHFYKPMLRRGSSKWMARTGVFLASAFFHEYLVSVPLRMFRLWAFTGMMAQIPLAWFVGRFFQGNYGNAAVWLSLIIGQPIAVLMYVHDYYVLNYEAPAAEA
Protocol Description: DGAT-1 inhibition assay (IC50), SF9 microsomes
Condition: SF9 insect cells expressing human DGAT-1
Catalogue of pIC50 values
On this scale, pIC50 is minus log10 of a concentration expressed in M (mol/L).

Known results for compounds:
Q: Entry O=C([O-])C[C@H]1CC[C@H](c2csc3c(-c4ccc(NC(=O)Nc5cccc(Cl)c5)cc4)ncnc32)CC1.[Na+] [Compound 17b] has what pIC50?
Ans: 7.05

Q: Entry O=C([O-])C[C@H]1CC[C@@H](c2csc3c(-c4ccc(NC(=O)Nc5cccc(Cl)c5)cc4)ncnc32)CC1.[Na+] [Compound 17a] has what pIC50?
Ans: 7.13

// next item, pIC50 requested
Q: Entry O=C(O)C[C@H]1CC[C@H](c2ccc(-c3ccc(Nc4ccc(C(F)(F)F)nc4)cn3)cc2)CC1 [Compound 2, pradigastat, reference compound] has what pIC50?
Ans: 6.80

###

Protocol Description: Pharmacokinetic profile in dog
Type: in vivo
Condition: in vivo, 3 mg/kg po, read-out: AUC 0 ∼ 24
Assay Metric: AUC (ng·h/mL)
The answer is to be given in ng·h/mL; state only the numeric part.

Q: Entry O=C([O-])C[C@H]1CC[C@@H](c2csc3c(-c4ccc(NC(=O)Nc5cccc(Cl)c5)cc4)ncnc32)CC1.[Na+] [Compound 17a] has what AUC?
Ans: 8240

###

Protocol Description: Pharmacokinetic profile in rat
Type: in vivo
Condition: in vivo, 10 mg/kg po
Assay Metric: half-life (min)
The answer is to be given in min; state only the numeric part.

Q: Entry O=C([O-])C[C@H]1CC[C@@H](c2csc3c(-c4ccc(NC(=O)Nc5cccc(Cl)c5)cc4)ncnc32)CC1.[Na+] [Compound 17a] has what half-life?
Ans: 180
